Data credit: ChEMBL document CHEMBL6092185

Method Summary: in vivo
Condition Summary: BALB/c, mouse, plasma, po, 20 mg/kg
Description: AUC (0 to 24 hrs) in BALB/c mouse plasma at 20 mg/kg, IG measured upto 24 hrs by LC-MS/MS analysis
Value Kind: AUC(0-t) at 24 h (ng·h/mL)

1) CC1(C)[C@@H](O[C@H]2O[C@H](CO)[C@@H](O)[C@H](O)[C@@H]2O)CC[C@]2(C)[C@H]3C(=O)C=C4[C@H]5C[C@@](C)(CNC(=O)NCC6CCOCC6)CC[C@]5(C)CC[C@@]4(C)[C@]3(C)CC[C@@H]12 655

###

Target Or Test System: Bifunctional epoxide hydrolase 2 (Mus musculus)
Sequence (P34914 whole entry): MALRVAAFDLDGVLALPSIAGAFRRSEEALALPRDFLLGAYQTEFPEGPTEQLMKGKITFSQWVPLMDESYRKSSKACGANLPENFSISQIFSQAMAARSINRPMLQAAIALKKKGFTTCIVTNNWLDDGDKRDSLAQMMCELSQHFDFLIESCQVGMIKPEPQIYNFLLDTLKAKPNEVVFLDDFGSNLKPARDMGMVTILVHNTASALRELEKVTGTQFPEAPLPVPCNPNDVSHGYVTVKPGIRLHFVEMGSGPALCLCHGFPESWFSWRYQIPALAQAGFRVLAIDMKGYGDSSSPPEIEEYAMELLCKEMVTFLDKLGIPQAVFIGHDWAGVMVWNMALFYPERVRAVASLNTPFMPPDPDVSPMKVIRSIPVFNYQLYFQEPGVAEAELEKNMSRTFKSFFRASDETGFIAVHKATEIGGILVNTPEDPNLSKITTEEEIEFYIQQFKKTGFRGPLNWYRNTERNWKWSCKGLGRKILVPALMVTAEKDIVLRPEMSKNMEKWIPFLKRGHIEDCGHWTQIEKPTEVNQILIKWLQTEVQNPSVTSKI
Method Summary: Inhibition of C57BL/6J mouse cortex sEH using 14,15-EET as substrate preincubated for 15 mins followed by substrate addition measured after 2 hrs by UPLC-MS/MS analysis
pIC50: −log10 of the molar value.
Classification field: enter MET for pIC50 values not below 8, NOT MET for values below it.

1) CCC(=O)N1CCC(CNC(=O)NC[C@@]2(C)CC[C@]3(C)CC[C@]4(C)C(=CC(=O)[C@@H]5[C@@]6(C)CC[C@H](O)C(C)(C)[C@@H]6CC[C@]54C)[C@@H]3C2)CC1 MET
2) CC(C)CNC(=O)NC[C@@]1(C)CC[C@]2(C)CC[C@]3(C)C(=CC(=O)[C@@H]4[C@@]5(C)CC[C@H](O)C(C)(C)[C@@H]5CC[C@]43C)[C@@H]2C1 NOT MET
3) CCC(=O)N1CCC(CNC(=O)NC[C@@]2(C)CC[C@]3(C)CC[C@]4(C)C(=CC(=O)[C@@H]5[C@@]6(C)CC[C@H](O[C@@H]7O[C@H](CO)[C@@H](O)[C@H](O)[C@@H]7O)C(C)(C)[C@@H]6CC[C@]54C)[C@H]3C2)CC1 NOT MET

###

Target Or Test System: Bifunctional epoxide hydrolase 2 (Mus musculus)
Method Summary: Inhibition of C57BL/6J mouse cortex sEH using 14,15-EET as substrate preincubated for 15 mins followed by substrate addition measured after 2 hrs by UPLC-MS/MS analysis
pIC50: −log10 of the molar value.

Compound	Target Or Test System	pIC50
CC1(C)[C@@H](O[C@H]2O[C@H](CO)[C@H](O)[C@H](O)[C@H]2O)CC[C@]2(C)[C@H]3C(=O)C=C4[C@H]5C[C@@](C)(CNC(=O)NCC6CCOCC6)CC[C@]5(C)CC[C@@]4(C)[C@]3(C)CC[C@@H]12	Bifunctional epoxide hydrolase 2 (Mus musculus)	6.51
CC1(C)[C@@H](O)CC[C@]2(C)[C@H]3C(=O)C=C4[C@@H]5C[C@@](C)(CNC(=O)NCc6ccc(S(N)(=O)=O)cc6)CC[C@]5(C)CC[C@@]4(C)[C@]3(C)CC[C@@H]12	Bifunctional epoxide hydrolase 2 (Mus musculus)	7.70
CCC(=O)N1CCC(CNC(=O)NC[C@@]2(C)CC[C@]3(C)CC[C@]4(C)C(=CC(=O)[C@@H]5[C@@]6(C)CC[C@H](O[C@H]7O[C@H](CO)[C@@H](O)[C@H](O)[C@@H]7O)C(C)(C)[C@@H]6CC[C@]54C)[C@@H]3C2)CC1	Bifunctional epoxide hydrolase 2 (Mus musculus)	6.74
CC1(C)[C@@H](O[C@@H]2O[C@H](CO)[C@@H](O)[C@H](O)[C@H]2O)CC[C@]2(C)[C@H]3C(=O)C=C4[C@@H]5C[C@@](C)(CNC(=O)NCC6CCC(OC(F)(F)F)CC6)CC[C@]5(C)CC[C@@]4(C)[C@]3(C)CC[C@@H]12 (some centres undefined)	Bifunctional epoxide hydrolase 2 (Mus musculus)	5.67
CC1(C)[C@@H](O[C@H]2O[C@H](CO)[C@@H](O)[C@H](O)[C@H]2O)CC[C@]2(C)[C@H]3C(=O)C=C4[C@H]5C[C@@](C)(CNC(=O)NCC6CCOCC6)CC[C@]5(C)CC[C@@]4(C)[C@]3(C)CC[C@@H]12	Bifunctional epoxide hydrolase 2 (Mus musculus)	6.35
CC1(C)[C@@H](O[C@@H]2OC[C@@H](O)[C@@H](O)[C@@H]2O)CC[C@]2(C)[C@H]3C(=O)C=C4[C@H]5C[C@@](C)(CNC(=O)NCC6CCOCC6)CC[C@]5(C)CC[C@@]4(C)[C@]3(C)CC[C@@H]12	Bifunctional epoxide hydrolase 2 (Mus musculus)	6.94
CCC(=O)N1CCC(CNC(=O)NC[C@@]2(C)CC[C@]3(C)CC[C@]4(C)C(=CC(=O)[C@@H]5[C@@]6(C)CC[C@H](O[C@H]7O[C@H](CO)[C@@H](O)[C@H](O)[C@@H]7O)C(C)(C)[C@@H]6CC[C@]54C)[C@H]3C2)CC1	Bifunctional epoxide hydrolase 2 (Mus musculus)	6.82
CC1(C)[C@@H](O[C@@H]2O[C@H](CO)[C@@H](O)[C@H](O)[C@H]2O)CC[C@]2(C)[C@H]3C(=O)C=C4[C@@H]5C[C@@](C)(CNC(=O)NCC6CCOCC6)CC[C@]5(C)CC[C@@]4(C)[C@]3(C)CC[C@@H]12	Bifunctional epoxide hydrolase 2 (Mus musculus)	6.35
CC(C)CNC(=O)NC[C@@]1(C)CC[C@]2(C)CC[C@]3(C)C(=CC[C@@H]4[C@@]5(C)CC[C@H](O)C(C)(C)[C@@H]5CC[C@]43C)[C@@H]2C1	Bifunctional epoxide hydrolase 2 (Mus musculus)	8.18
